Source listed as patent US10883137B2.

target-under-test: human POLRMT (mitochondrial DNA-directed RNA polymerase) (Homo sapiens)
Sequence (O00411 42-1230): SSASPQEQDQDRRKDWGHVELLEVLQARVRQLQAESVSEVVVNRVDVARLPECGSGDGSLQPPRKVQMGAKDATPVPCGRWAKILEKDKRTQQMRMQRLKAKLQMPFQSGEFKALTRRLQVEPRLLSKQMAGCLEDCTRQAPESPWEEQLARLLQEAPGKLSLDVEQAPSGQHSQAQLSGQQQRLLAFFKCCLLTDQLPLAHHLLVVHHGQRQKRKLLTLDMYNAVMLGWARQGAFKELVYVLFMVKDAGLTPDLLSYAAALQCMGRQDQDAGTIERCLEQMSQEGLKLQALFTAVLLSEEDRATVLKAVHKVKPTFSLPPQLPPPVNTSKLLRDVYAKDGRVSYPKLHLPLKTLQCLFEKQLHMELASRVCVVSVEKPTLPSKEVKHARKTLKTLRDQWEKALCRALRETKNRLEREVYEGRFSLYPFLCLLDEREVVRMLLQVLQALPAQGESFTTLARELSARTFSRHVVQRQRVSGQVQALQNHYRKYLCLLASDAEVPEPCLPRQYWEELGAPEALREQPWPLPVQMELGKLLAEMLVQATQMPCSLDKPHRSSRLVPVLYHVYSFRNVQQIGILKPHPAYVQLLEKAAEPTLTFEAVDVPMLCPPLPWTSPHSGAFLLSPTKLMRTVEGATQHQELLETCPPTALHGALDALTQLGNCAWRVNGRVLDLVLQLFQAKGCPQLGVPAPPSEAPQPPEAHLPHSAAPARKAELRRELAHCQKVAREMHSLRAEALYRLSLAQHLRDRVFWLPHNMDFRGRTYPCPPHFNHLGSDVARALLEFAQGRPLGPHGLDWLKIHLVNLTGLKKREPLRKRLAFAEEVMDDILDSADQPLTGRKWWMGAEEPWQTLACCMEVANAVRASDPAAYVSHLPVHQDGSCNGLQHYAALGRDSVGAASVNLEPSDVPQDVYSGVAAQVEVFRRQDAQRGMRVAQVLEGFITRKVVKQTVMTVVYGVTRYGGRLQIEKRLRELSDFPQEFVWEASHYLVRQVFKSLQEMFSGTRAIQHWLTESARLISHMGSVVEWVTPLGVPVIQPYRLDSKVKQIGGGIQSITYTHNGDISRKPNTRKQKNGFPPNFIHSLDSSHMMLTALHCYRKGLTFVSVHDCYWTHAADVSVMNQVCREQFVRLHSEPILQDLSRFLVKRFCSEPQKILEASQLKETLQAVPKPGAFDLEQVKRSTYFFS
parameter: pIC50
Entry type: numeric. Quantity: pIC50, the -log10 of concentration in molar units.

Any idea what its pIC50 is? The compound is C[C@@]1(F)[C@H](O)[C@@H](COP(=O)(O)OP(=O)(O)OP(=O)(O)O)O[C@H]1n1cnc2c(=O)[nH]c(N)nc21 [2′methyl/F-GTP]
4.13
